// provenance: the RNAGym collection of RNA variant scans (doi:10.7554/elife.80360)

B1: CPEB3 Ribozyme (parent)
chain: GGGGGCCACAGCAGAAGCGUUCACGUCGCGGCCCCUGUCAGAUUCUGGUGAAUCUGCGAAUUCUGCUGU

- Variants of: B1
- protocol_notes: self-cleavage, relative activity (ratio to wild type); higher = more cleavage; co-transcriptional
measurement_name: self-cleavage
API doc: respond with a numeric literal and nothing else, no unit.

A52G U61A	0.89
U21A G37A	0.283
C35A C54G	0.199
C7G U36A	0.0233

In: Please look up its self-cleavage: U43A C45G
Out: 0.868

In: Please look up its self-cleavage: C12G C34G
Out: 0.69

In: Please look up its self-cleavage: A13U C18A
Out: 0.132

In: Please look up its self-cleavage: G2C A59G
Out: 0.106

In: Please look up its self-cleavage: C27A A52G
Out: 0.708

In: Please look up its self-cleavage: U26G G47A
Out: 0.893

In: Please look up its self-cleavage: C7U G68U
Out: 0.965

In: Please look up its self-cleavage: C63A C66G
Out: 0.402
